% Proliferation A172 listing for selected molecules.
# Tested on: A172
# testDescription: Cell proliferation assay (CCK8), fixed concentration, reference GBM cell line A172
# Type: cell-based, human
# conditionNotes: fixed test concentration per compound, Table 1 log[M]: Trequinsin −4.6, Fucoxanthin −4.8, PF04449613 −4, PF02545920 −4.6, TIC10 −5, PF04691502 −6.6, GSK1059615 −5.5, LY294002 −5, Axitinib −5, Temozolomide −5
readoutKind: % Proliferation A172 (%)

- entrySmiles: "C[C@H](c1nc2c(cnn2C2CCOCC2)c(=O)[nH]1)N1CC(Oc2ccccc2)C1"
  readoutKind: "% Proliferation A172"
  quantitativeReadout: 39
- entrySmiles: "Cn1cc(-c2ccncc2)c(-c2ccc(OCc3ccc4ccccc4n3)cc2)n1"
  readoutKind: "% Proliferation A172"
  quantitativeReadout: 20
- entrySmiles: "O=c1cc(N2CCOCC2)oc2c(-c3ccccc3)cccc12"
  readoutKind: "% Proliferation A172"
  quantitativeReadout: 58
